Numbers sourced from patent US20120065066A1.

test system: Alopecurus myosuroides (ALOMY); experiment: Test Example 1, post-emergence herbicidal test; type: in vivo; conditions: 360 h, evaluated 15 days later, 100=total damage to plant, 0=no damage to plant
Rule: pest or weed control at 125 g/ha of 70% or more gives fulfilled; anything lower gives not fulfilled.

Here's what some known entries look like.
{"molecule": "CCc1cc(C)cc(CC)c1C1=C(O)[C@@H]2[C@H](C1=O)[C@@H]1CC[C@H]2C1=C(C)C", "group_label": "not fulfilled"}
{"molecule": "CCc1cc(C)cc(CC)c1C1=C(O)[C@H]2[C@@H]3CC[C@@H](C(=O)C3)[C@H]2C1=O", "group_label": "not fulfilled"}
{"molecule": "Cc1cc(C)c(C2=C(O)[C@@H]3[C@H](C2=O)[C@@H]2C=C[C@H]3CC2)c(C)c1", "group_label": "not fulfilled"}
{"molecule": "CCc1ccc(-c2ccc(Cl)cc2)cc1C1=C(O)[C@H]2C3CCC(C3=C(C)C)[C@H]2C1=O (some centres unmarked)", "group_label": "not fulfilled"}
{"molecule": "Cc1cc(C)c(C2=C(O)[C@H]3[C@H]4CC[C@H](C4)[C@H]3C2=O)c(C)c1 (racemic)", "group_label": "not fulfilled"}
{"molecule": "CCc1cc(C)cc(CC)c1C1=C(O)[C@H]2[C@H]3CC[C@H](C3)[C@H]2C1=O", "group_label": "fulfilled"}

Enquiry: Can CCc1cc(C)cc(CC)c1C1=C(O)[C@@H]2[C@H](C1=O)[C@H]1CC[C@@H]2C1=C(C)C be said to have pest or weed control at 125 g/ha at or above 70%?
Return: fulfilled

Enquiry: Can CCc1cc(C)cc(CC)c1C1=C(O)[C@H]2[C@H]3C=C[C@](OC)(CC3)[C@H]2C1=O be said to have pest or weed control at 125 g/ha at or above 70%?
Return: fulfilled

Enquiry: Can CCc1cc(C)cc(CC)c1C1=C(O)[C@H]2[C@H]3CC[C@H](CC3)[C@H]2C1=O (racemic) be said to have pest or weed control at 125 g/ha at or above 70%?
Return: fulfilled

Enquiry: Can Cc1cc(C)c(C2=C(O)[C@H]3[C@H]4CC[C@H](CC4)[C@H]3C2=O)c(C)c1 be said to have pest or weed control at 125 g/ha at or above 70%?
Return: not fulfilled

----------
tested on: Digitaria sanguinalis (DIGSA); test: Test Example 1, post-emergence herbicidal test; assay type: in vivo; conditions: 360 h, evaluated 15 days later, 100=total damage to plant, 0=no damage to plant
reported_endpoint: pest or weed control at 125 g/ha
Answer format: value, then unit.

Worked examples follow.
{"molecule": "CCc1cc(C)cc(CC)c1C1=C(O)[C@H]2[C@@H]3CC[C@@H](C(=O)C3)[C@H]2C1=O", "reported_endpoint": "pest or weed control at 125 g/ha", "value_measured": "80%"}
{"molecule": "CCc1cc(C)cc(CC)c1C1=C(O)[C@H]2[C@H]3CC[C@H](CC3)[C@H]2C1=O (racemic)", "reported_endpoint": "pest or weed control at 125 g/ha", "value_measured": "100%"}
{"molecule": "Cc1cc(C)c(C2=C(O)[C@@H]3[C@H](C2=O)[C@@H]2C=C[C@H]3CC2)c(C)c1", "reported_endpoint": "pest or weed control at 125 g/ha", "value_measured": "50%"}

In the following, a different molecule is considered.
get_value(item= Cc1cc(C)c(C2=C(O)[C@H]3[C@H]4CC[C@H](CC4)[C@H]3C2=O)c(C)c1 , readout=pest or weed control at 125 g/ha) returns 80%

----------
system: Avena fatua (AVEFA); experiment: Test Example B, post-emergence herbicidal test; assay type: in vivo; conditions: 312 h, evaluated after 13 days, 100=total damage to plant, 0=no damage to plant
Below: a set of entries, each annotated with reported pest or weed control at 250 g/ha.
Express your answer in %, writing the number without its unit.

{"compound": "CCc1ccc(-c2ccc(Cl)c(C(F)(F)F)c2)cc1C1=C(O)[C@H]2[C@H]3CC[C@H](C3)[C@H]2C1=O [Compound T33]", "value_measured": 70}

get_value(item= CCc1ccc(-c2c(F)cc(Cl)cc2Cl)cc1C1=C(O)[C@H]2[C@H]3CC[C@H](C3)[C@H]2C1=O [Compound T38] , readout=pest or weed control at 250 g/ha) returns 40

get_value(item= CCc1ccc(-c2ccc(Cl)cc2)cc1C1=C(O)[C@@H]2[C@H](C1=O)[C@@H]1C=C[C@H]2CC1 (racemic) [Compound T6] , readout=pest or weed control at 250 g/ha) returns 60

----------
system: Avena fatua (AVEFA); assay: Test Example B, post-emergence herbicidal test; assay type: in vivo; conditions: 312 h, evaluated after 13 days, 100=total damage to plant, 0=no damage to plant
Label 1 (yes) when pest or weed control at 250 g/ha < 50%; otherwise 0 (no).

Here's what some known entries look like.
{"compound": "CO/N=C1/C[C@H]2CC[C@@H]1[C@H]1C(=O)C(c3c(C)cc(C)cc3C)=C(O)[C@@H]21", "group_label": "1 (yes)"}
{"compound": "CCc1ccc(-c2ccc(Cl)c(F)c2)cc1C1=C(O)[C@H]2[C@H]3CC[C@H](C3)[C@H]2C1=O", "group_label": "0 (no)"}
{"compound": "CCc1ccc(-c2ccc(Cl)cc2)cc1C1=C(O)[C@H]2[C@@H]3CC[C@@H](C(=NOC)C3)[C@H]2C1=O (racemic)", "group_label": "0 (no)"}
{"compound": "CCc1cc(C)cc(CC)c1C1=C(O)[C@H]2[C@H]3CC[C@](OC)(CC3)[C@H]2C1=O", "group_label": "1 (yes)"}
{"compound": "CCc1ccc(-c2ccc(Cl)nc2Cl)cc1C1=C(O)[C@H]2[C@H]3CC[C@H](C3)[C@H]2C1=O", "group_label": "1 (yes)"}
{"compound": "CCc1ccc(-c2ccc(Cl)c(C(F)(F)F)c2)cc1C1=C(O)[C@H]2[C@H]3CC[C@H](CC3)[C@H]2C1=O", "group_label": "1 (yes)"}

Enquiry: hey, is pest or weed control at 250 g/ha for CCc1ccc(-c2ccc(Cl)c(F)c2F)cc1C1=C(O)[C@H]2[C@H]3CC[C@H](CC3)[C@H]2C1=O lower than 50% or not?
Return: 0 (no)

Enquiry: hey, is pest or weed control at 250 g/ha for CCc1ccc(-c2ccc(Cl)c(Cl)c2F)cc1C1=C(O)[C@H]2[C@H]3CC[C@H](C3)[C@H]2C1=O lower than 50% or not?
Return: 0 (no)

Enquiry: hey, is pest or weed control at 250 g/ha for CCc1ccc(-c2ccc(Cl)c(F)c2F)cc1C1=C(O)[C@H]2[C@H]3CC[C@H](C3)[C@H]2C1=O lower than 50% or not?
Return: 0 (no)

Enquiry: hey, is pest or weed control at 250 g/ha for CCc1ccc(-c2ccc(Cl)c(Cl)c2)cc1C1=C(O)[C@H]2[C@H]3CC[C@H](C3)[C@H]2C1=O lower than 50% or not?
Return: 0 (no)

Enquiry: hey, is pest or weed control at 250 g/ha for CCc1ccc(-c2ccc(Cl)cc2)cc1C1=C(O)[C@H]2[C@@H]3CC[C@@H](C(=O)C3)[C@H]2C1=O (racemic) lower than 50% or not?
Return: 1 (yes)

----------
test system: Setaria faberi (SETFA); experiment: Test Example B, pre-emergence herbicidal test; type: in vivo; details: 250 g/ha, evaluated after 13 days, 100=total damage to plant, 0=no damage to plant
Below: a set of entries, each annotated with reported SETFA damage to plant.

{"molecule": "Cc1cc(-c2ccccc2)cc(C)c1C1=C(O)[C@@H]2[C@H](C1=O)[C@@H]1C=C[C@H]2CC1 (racemic)", "reported_endpoint": "SETFA damage to plant", "value_measured": 100}

get_value(item= CO/N=C1/C[C@H]2CC[C@@H]1[C@H]1C(=O)C(c3c(C)cc(C)cc3C)=C(O)[C@@H]21 , readout=SETFA damage to plant) returns 80

get_value(item= CCc1ccc(-c2ccc(Cl)cc2)cc1C1=C(O)[C@H]2[C@@H]3CC[C@@H](C(=O)C3)[C@H]2C1=O (racemic) , readout=SETFA damage to plant) returns 90

get_value(item= CCc1ccc(-c2ccc(Cl)cc2)cc1C1=C(O)[C@H]2[C@@H]3CC[C@@H](C(=NOC)C3)[C@H]2C1=O (racemic) , readout=SETFA damage to plant) returns 0

get_value(item= CCc1cc(C)cc(CC)c1C1=C(O)[C@H]2[C@H]3CC[C@](OC)(CC3)[C@H]2C1=O , readout=SETFA damage to plant) returns 100

----------
system: Digitaria sanguinalis (DIGSA); assay: Test Example 1, pre-emergence herbicidal test; format: in vivo; details: 480 h, evaluated 20 days later, 100=total damage to plant, 0=no damage to plant
reported_endpoint: pest or weed control at 250 g/ha (%)
Express your answer in %, writing the number without its unit.

Worked examples follow.
{"compound": "CCc1cc(C)cc(CC)c1C1=C(O)[C@H]2[C@H]3CC[C@H](C3)[C@H]2C1=O", "reported_endpoint": "pest or weed control at 250 g/ha", "value_measured": 100}
{"compound": "Cc1cc(C)c(C2=C(O)[C@H]3[C@H]4CC[C@H](C4)[C@H]3C2=O)c(C)c1 (racemic)", "reported_endpoint": "pest or weed control at 250 g/ha", "value_measured": 80}
{"compound": "CCc1cc(C)cc(CC)c1C1=C(O)[C@H]2[C@@H]3CC[C@@H](C(=O)C3)[C@H]2C1=O", "reported_endpoint": "pest or weed control at 250 g/ha", "value_measured": 80}

In the following, a different compound is considered.
Form: item CCc1ccc(-c2ccc(Cl)cc2)cc1C1=C(O)[C@H]2[C@H]3C=C[C@](OC)(CC3)[C@H]2C1=O (racemic) ; test system Digitaria sanguinalis (DIGSA); pest or weed control at 250 g/ha: 100
